experiment: in vitro; conditions: human, HepG2-A16-CD81EGFP cells, uninfected; note: reference of the scale not given here
Result Type: viability at 48 h, 3 µM (%)
Answer format: numeric, % implied, no suffix.

Record excerpt, results attached:
[
  {
    "Compound": "O=C(Nc1cccnc1)c1cc(-c2cccnc2)nc2ccc(Br)cc12 [MLS000582206-01]",
    "Result Type": "viability at 48 h, 3 µM",
    "Readout Units": "%",
    "Readout Number": 104
  },
  {
    "Compound": "COc1cc(O)c(C(CCN2CCCCC2)c2ccc3c(c2)OCO3)c(OC)c1 (stereo not drawn) [MLS000879495-01]",
    "Result Type": "viability at 48 h, 3 µM",
    "Readout Units": "%",
    "Readout Number": 94
  },
  {
    "Compound": "CCCCCn1c(=N)n(CC(O)COc2cccc(C)c2)c2ccccc21 (stereo not drawn) [NCGC00101833-01]",
    "Result Type": "viability at 48 h, 3 µM",
    "Readout Units": "%",
    "Readout Number": 94.8
  },
  {
    "Compound": "Oc1ccc(Cl)cc1CNCc1cccc2ccccc12 [MLS002207460-01]",
    "Result Type": "viability at 48 h, 3 µM",
    "Readout Units": "%",
    "Readout Number": 107
  },
  {
    "Compound": "Cc1c(O)c(CN2CCCC2)cc2c1oc(=O)c1ccccc12 [MLS000081529-01]",
    "Result Type": "viability at 48 h, 3 µM",
    "Readout Units": "%",
    "Readout Number": 102
  },
  {
    "Compound": "COc1cc2ccccc2cc1C(=O)N1CC(C)CC(C)C1 (stereo not drawn) [MLS001129394-01]",
    "Result Type": "viability at 48 h, 3 µM",
    "Readout Units": "%",
    "Readout Number": 98
  },
  {
    "Compound": "COc1cc(O)c(C(CCN2CCN(c3ccccc3)CC2)c2cc(OC)c(OC)c(OC)c2)c(OC)c1 (stereo not drawn) [MLS000879517-01]",
    "Result Type": "viability at 48 h, 3 µM",
    "Readout Units": "%",
    "Readout Number": 102
  },
  {
    "Compound": "COc1ccc2c(c1)C1(Nc3ccccc3-c3nc4ccccc4n31)C(=O)N2 (stereo not drawn) [MLS000080605-01]",
    "Result Type": "viability at 48 h, 3 µM",
    "Readout Units": "%",
    "Readout Number": 104
  },
  {
    "Compound": "COc1cc(O)c(C(CCN2CCN(c3ccccc3)CC2)c2ccc3c(c2)OCO3)c(OC)c1 (stereo not drawn) [MLS000879526-01]",
    "Result Type": "viability at 48 h, 3 µM",
    "Readout Units": "%",
    "Readout Number": 96
  },
  {
    "Compound": "CCOC(=O)CCCCC(=O)c1[nH]c(=O)[nH]c1Cn1ccnc1 [MLS000092014-01]",
    "Result Type": "viability at 48 h, 3 µM",
    "Readout Units": "%",
    "Readout Number": 107
  }
]

The reported value for CCOc1ccccc1CN1CCCN(Cc2ccncc2)C(c2ccccc2)CC(=O)NCC1 (stereo not drawn) [NCGC00467181-01] in terms of viability at 48 h, 3 µM is 96.8

The reported value for CCN1CCN(c2ccc(Nc3ccnc4ccccc34)cc2)CC1 [MLS001360577-01] in terms of viability at 48 h, 3 µM is 91

Values from paper PMC7822874
